Listed below are compounds with IC50 for UniProtKB Q9Y5Z0, each taken from published literature.

{"columns": ["compound", "unit-symbol", "IC50"],
 "data": [
  ["CC1(C)OCC(N)=N[C@](C)(c2cc(NC3CCc4cc(Cl)cnc43)ccc2F)C1(F)F (stereo partly shown)", "nM", 28],
  ["COc1cnc2c(Nc3ccc(F)c([C@@]4(C)N=C(N)[C@@]5(C)CC[C@@H]4S5(=O)=O)c3)nccc2n1", "nM", 15],
  ["CN1C(=O)C(C)(C)[C@@](C)(c2cc(NC(=O)c3ncco3)ccc2F)N=C1N", "nM", 230],
  ["CC1(C)OCC(N)=N[C@](C)(c2cc(N[C@H]3CCc4cc(C#N)cnc43)ccc2F)C1(F)F", "nM", 5],
  ["CN1C(=O)C(C)(C)[C@@](C)(c2cc(NC(=O)c3ncc(Cl)cn3)ccc2F)N=C1N", "nM", 28],
  ["CC[C@@]1(c2cccc(NC(=O)c3ccccn3)c2)CC(=O)N(C)C(N)=N1", "nM", 39],
  ["COc1cnc(C(=O)Nc2ccc(F)c([C@@]3(C)N=C(N)[C@@]4(CF)CC[C@@H]3S4(=O)=O)c2)c(F)c1", "nM", 14],
  ["Cc1ccc(C(=O)Nc2cccc([C@]3(C)CC(=O)N(C)C(N)=N3)c2)nc1", "nM", 37],
  ["CCC[C@@]1(c2cccc(NC(=O)c3ccccn3)c2)CC(=O)N(C)C(N)=N1", "nM", 1780],
  ["Cc1cc(C(=O)Nc2cccc([C@]3(C)CC(=O)N(C)C(N)=N3)c2)n(C2CC2)n1", "nM", 190],
  ["COc1cnc2c(Nc3ccc(F)c([C@@]4(C)N=C(N)[C@@]5(CF)CC[C@@H]4S5(=O)=O)c3)nccc2c1", "nM", 18.5],
  ["CN1C(=O)C[C@@](C)(c2cccc(NC(=O)c3cn4ccccc4n3)c2)N=C1N", "nM", 110],
  ["C#CCOc1cnc2c(Nc3ccc(F)c([C@@]4(C)N=C(N)[C@@]5(CF)CC[C@@H]4S5(=O)=O)c3)nccc2n1", "nM", 9],
  ["CC1(C)OCC(N)=N[C@](C)(c2cc(Nc3ccc(F)cc3)ccc2F)C1(F)F", "nM", 4160],
  ["CC[C@@]1(c2cc(NC(=O)c3nc(Cl)ccc3C(F)(F)F)ccc2F)CCSC(N)=N1", "nM", 33500],
  ["Cc1cncc(C(=O)Nc2cccc([C@]3(C)CC(=O)N(C)C(N)=N3)c2)n1", "nM", 217]
]}

----------
Collected set of IC50 measured with Beta-secretase 2 (Homo sapiens, UniProt Q9Y5Z0) across studies.
measured-quantity: IC50 (µM)

{"columns": ["cpd-smiles", "measured-quantity", "value-reported"],
 "data": [
  ["CN1C(=O)C[C@@](C)(c2cccc(NC(=O)c3ccc(OCC(F)(F)F)cn3)c2)N=C1N", "IC50", 0.06],
  ["Cc1nc(C(=O)Nc2cccc([C@]3(C)CC(=O)N(C)C(N)=N3)c2)cs1", "IC50", 0.16],
  ["NC1=N[C@@]2(c3cc(CNCC(F)(F)F)ccc3F)CO[C@@H](CF)C[C@H]2CS1", "IC50", 0.423],
  ["CC[C@@]1(c2cc(NC(=O)c3cnc(Cl)cn3)ccc2F)CCSC(N)=N1", "IC50", 1]
]}

----------
Multi-source literature compilation: pIC50 on Beta-secretase 2 (Homo sapiens).
pIC50: −log10 of the molar value.
measured-quantity: pIC50

{"columns": ["compound", "subject-of-test", "measured-quantity", "value-reported"],
 "data": [
  ["NC1=N[C@@]2(c3ccc(F)cc3F)CO[C@@H](c3nc(C(F)(F)F)co3)C[C@H]2CS1", "Beta-secretase 2 (Homo sapiens)", "pIC50", 6.20],
  ["Cc1coc([C@H]2C[C@H]3[C@@H](C)SC(N)=N[C@@]3(c3ccc(F)cc3F)CO2)n1", "Beta-secretase 2 (Homo sapiens)", "pIC50", 5.85],
  ["Cc1cc(OC(F)F)cnc1C(=O)Nc1ccc(F)c([C@@]2(C)N=C(N)[C@@]3(CF)CC[C@@H]2S3(=O)=O)c1", "Beta-secretase 2 (Homo sapiens)", "pIC50", 8.10],
  ["CCOc1cc(C(F)(F)F)cnc1C(=O)Nc1cccc([C@]2(C)CC(=O)N(C)C(N)=N2)c1", "Beta-secretase 2 (Homo sapiens)", "pIC50", 7.10],
  ["CC[C@H]1C(=O)N(C)C(N)=N[C@]1(C)c1cccc(NC(=O)c2ccc(Cl)cn2)c1", "Beta-secretase 2 (Homo sapiens)", "pIC50", 7.62],
  ["CN1C(=O)C[C@@](C)(c2cccc(NC(=O)c3ccc(CO)cn3)c2)N=C1N", "Beta-secretase 2 (Homo sapiens)", "pIC50", 6.34],
  ["COc1cccnc1C(=O)Nc1ccc(F)c([C@@]2(C)N=C(N)N(C)C(=O)C2(C)C)c1", "Beta-secretase 2 (Homo sapiens)", "pIC50", 6.82],
  ["COc1cccnc1C(=O)Nc1cccc([C@@]2(C)N=C(N)N(C)C(=O)C2(C)C)c1", "Beta-secretase 2 (Homo sapiens)", "pIC50", 6.80],
  ["CCC[C@@]1(c2cccc(NC(=O)c3ccc(Cl)cn3)c2)CC(=O)N(C)C(N)=N1", "Beta-secretase 2 (Homo sapiens)", "pIC50", 6.77],
  ["CN1C(=O)C(C)(C)[C@@](C)(c2cc(NC(=O)c3ncc(C(F)(F)F)cc3Cl)ccc2F)N=C1N", "Beta-secretase 2 (Homo sapiens)", "pIC50", 7.72],
  ["C[C@@]1(c2cc(NC(=O)c3nc4ccc(C#N)nc4s3)ccc2F)CO[C@@](C)(C(F)(F)F)C(N)=N1", "Beta-secretase 2 (Homo sapiens)", "pIC50", 6.35],
  ["CC(F)(F)[C@H]1OC[C@]2(c3cc(NC(=O)c4cnc(-n5cncn5)cn4)ccc3F)N=C(N)SC[C@H]12", "Beta-secretase 2 (Homo sapiens)", "pIC50", 6.32],
  ["CN1C(=O)C[C@@](C)(c2cccc(NC(=O)c3cc(Cl)ccn3)c2)N=C1N", "Beta-secretase 2 (Homo sapiens)", "pIC50", 7.32],
  ["CN1C(=O)C(C)(C)[C@@](C)(c2cc(NC(=O)c3nc(Cl)ccc3C(F)(F)F)ccc2F)N=C1N", "Beta-secretase 2 (Homo sapiens)", "pIC50", 6.25],
  ["C[C@]1(c2cc(NC3CCCOC3)ccc2F)N=C(N)COC[C@@H]1F (stereo partly shown)", "Beta-secretase 2 (Homo sapiens)", "pIC50", 7.14],
  ["CCCOc1cccnc1C(=O)Nc1cccc([C@]2(C)CC(=O)N(C)C(N)=N2)c1", "Beta-secretase 2 (Homo sapiens)", "pIC50", 6.46]
]}

----------
Multi-source literature compilation: pIC50 on Beta-secretase 2 (Homo sapiens, UniProt Q9Y5Z0).
pIC50: −log10 of the molar value.
Use Criterion met when the recorded pIC50 is no lower than 6; use Criterion not met when it is lower.

{"columns": ["compound", "subject-of-test", "classification"],
 "data": [
  ["COc1cnc(C(=O)Nc2ccc(F)c([C@@]3(C)N=C(N)[C@@]4(CF)CC[C@@H]3S4(=O)=O)c2)c(C)c1", "Beta-secretase 2 (Homo sapiens, UniProt Q9Y5Z0)", "Criterion met"],
  ["COC[C@H]1C[C@H]2CSC(N)=N[C@@]2(c2ccc(F)cc2F)CO1", "Beta-secretase 2 (Homo sapiens, UniProt Q9Y5Z0)", "Criterion not met"],
  ["CC#CCOc1ccc(C(=O)Nc2ccc(F)c([C@@]3(C)N=C(N)[C@]4(C)CC[C@H]3S4(=O)=O)c2)c(F)c1", "Beta-secretase 2 (Homo sapiens, UniProt Q9Y5Z0)", "Criterion not met"],
  ["CN1C(=O)C(C)(C)[C@@](C)(c2cc(NC(=O)c3ncccc3F)ccc2F)N=C1N", "Beta-secretase 2 (Homo sapiens, UniProt Q9Y5Z0)", "Criterion met"],
  ["CN1C(=O)C(C)(C)[C@@](C)(c2cc(NC(=O)c3ccc(OC(F)F)cn3)ccc2F)N=C1N", "Beta-secretase 2 (Homo sapiens, UniProt Q9Y5Z0)", "Criterion met"],
  ["C[C@]1(c2cc(Nc3ncnc4cc(C(F)(F)F)cnc34)ccc2F)N=C(N)[C@@]2(C)CC[C@@H]1S2(=O)=O", "Beta-secretase 2 (Homo sapiens, UniProt Q9Y5Z0)", "Criterion met"],
  ["CN1C(=O)C[C@@](C)(c2cccc(NC(=O)c3ccc(=O)n(C)n3)c2)N=C1N", "Beta-secretase 2 (Homo sapiens, UniProt Q9Y5Z0)", "Criterion not met"],
  ["CN1C(=O)C[C@]2(CCc3ccc(NC(=O)c4ccccn4)cc32)N=C1N", "Beta-secretase 2 (Homo sapiens, UniProt Q9Y5Z0)", "Criterion not met"],
  ["CC[C@@]1(c2cc(NC(=O)c3ccc(Cl)cn3)ccc2F)CCSC(N)=N1", "Beta-secretase 2 (Homo sapiens, UniProt Q9Y5Z0)", "Criterion met"],
  ["CN1C(=O)C(OCc2ccccc2)[C@@](C)(c2cc(NC(=O)c3ccc(Cl)cn3)ccc2F)N=C1N (stereo partly shown)", "Beta-secretase 2 (Homo sapiens, UniProt Q9Y5Z0)", "Criterion met"],
  ["Cn1cc([C@H]2C[C@H]3CSC(N)=N[C@@]3(c3cc(CNCC(F)(F)F)ccc3F)CO2)cn1 (relative stereo)", "Beta-secretase 2 (Homo sapiens, UniProt Q9Y5Z0)", "Criterion met"],
  ["CC1(C)OCC(N)=N[C@](C)(c2cc(NC3COc4cc(Cl)ccc43)ccc2F)C1(F)F (stereo partly shown)", "Beta-secretase 2 (Homo sapiens, UniProt Q9Y5Z0)", "Criterion met"],
  ["CN1C(=O)C[C@@](C)(c2cccc(NC(=O)c3ccc(C#N)cn3)c2)N=C1N", "Beta-secretase 2 (Homo sapiens, UniProt Q9Y5Z0)", "Criterion met"]
]}
